Items are presented alongside their recorded melting point.

Sample answers from the record:
Oc1cccc2cnsc12 | 185 to 187 °C
Cc1cc(C)nc(-n2nc(C)nc2N)n1 | 237 °C
CCc1ccc(-c2ccc(C(=O)Nc3ccc4cc(CN5CCCC5)cnc4c3C)cc2)cc1 | 189 to 190 °C
CCNC(=O)CCCC1CCN(Cc2cnc3c(C)c(NC(=O)c4ccc(-c5ccc(F)cc5)cc4)ccc3c2)CC1 | 217 to 220 °C

Continue with the compound presented below.
Problem: Record request: melting point value, item CCn1cnc2c(Nc3ccc(C(F)(F)F)cc3)nc(NCCO)nc21
Result: 191 to 192 °C

###

Catalogue of molecules with associated melting point

Nc1ncc(Br)nc1-c1ccccc1Cl | 138 to 140 °C
OCc1cnoc1-c1ccc(Cl)cc1Cl | 76 to 77 °C
CC(C)(C)c1ccc(/C=C/C(=O)Nc2ccc3ncoc3c2)cc1 | 147 to 148 °C

API: the following record is the query input.
Problem: Consider the molecule CSc1c(C#N)nn(-c2c(Cl)cc(C(F)(F)F)cc2Cl)c1N and give its measured melting point.
Result: 147 to 148 °C

###

melting point by entry:

O=c1oc(-c2c(F)cccc2F)nn1-c1ccccc1Br | 111 to 114 °C
CCCCCc1oc(-c2ccc(Cl)cc2)nc1CC(=O)O | 136 to 137 °C
Cc1ccc(C(=O)Nc2ccc(C)c(-c3nc(OC(C)C)nc4c3CNC(=O)N4c3c(F)cccc3F)c2)cc1F | 254 to 255 °C
c1ccc(CSc2ncccc2-c2ccccc2)cc1 | 99 to 100 °C

Problem: Entry CCCCCCCCc1cc2c(cc1/C=C/c1ccc(C(=O)O)cc1)CCC(C)(C)CC2 has what melting point?
Result: 180 °C

Problem: I would be grateful if you could share the reported melting point for O=C(O)C(=O)c1ccc(OCCOc2ccc3ccccc3c2)c(F)c1 .
Result: 168 to 169 °C

Problem: What melting point value was documented for this molecule, CN1N(c2ccccc2)C(=O)C(F)(F)C1(C)O (stereo not given) ?
Result: 132 to 134 °C

Problem: Given COC(C)=CC(=O)NC1CCCCCC1 , state its recorded melting point.
Result: 120 °C

Problem: If you can, please state the reported melting point value of Cc1ccc(C(=O)O)cc1Nc1nccc(-c2cccnc2)n1 .
Result: 277 to 278 °C

Problem: Quick check: melting point of O=S1(=O)c2ccccc2C(c2ccccc2)N1CCN1CCC(Cc2c[nH]c3ccc(F)cc23)CC1 (stereo not given) ?
Result: 175 °C

###

Entries and their melting point values follow.

COC(=O)c1ccc(-c2ccc(Cl)s2)nc1 | 122 to 124 °C
Cc1ccccc1OCC(=O)Nc1c(C)cccc1C(=O)O | 133 to 136 °C
CCOC(=O)CC(=O)c1cc(F)c(Cl)cc1Cl | 44 to 45 °C
COc1cc(OC)nc(NC(=O)NS(=O)(=O)c2ccccc2-c2ccccn2)n1 | 175 to 176 °C
COc1cc(Br)c(Br)cc1N1CCN(CCCNc2c(C)c(=O)n(C)c(=O)n2C)CC1 | 153 to 155 °C

Proceed to the following item.
Problem: Need melting point, item N#CNC(=N)NCCc1c[nH]cn1
Result: 152 to 154 °C

###

# melting point per entry

O=c1c2ccccc2cc(Cl)n1-c1ccc(Cl)cc1 | 125 to 127 °C

Problem: Record request: melting point value, item Cc1nc(-c2cn(CC(F)(F)c3ccccc3)nn2)sc1C(=O)NCc1cccnc1
Result: 150 to 151 °C

Problem: melting point for Cc1ccc([N+](=O)[O-])c(C(N)=O)c1 ?
Result: 172 to 175 °C

Problem: I would be grateful if you could share the reported melting point for COc1ccc2c(c1)C(C)CC1C2CCC2(C)C(=O)CCC12 (configuration not stated) .
Result: 108 to 109 °C

Problem: Fill in: melting point of CC(=O)Nc1ccc2c(c1)CC(CN1CCC(c3c[nH]c4cc(Cl)ccc34)CC1)C2 (configuration not stated) is ___
Result: 151 to 152 °C

Problem: Item COc1cccc(-c2cc(=O)cc(N3CCOCC3)o2)c1 has what recorded melting point?
Result: 115 to 117 °C

Problem: I am curious: what melting point value has been reported for O=C1CN=C(c2ccccc2Cl)c2cc(I)ccc2N1 ?
Result: 260 to 262 °C

Problem: Quick one: melting point of CCOC(=O)N1Cc2ccccc2C(Oc2cccc(C(F)(F)F)c2)C1 (configuration not stated) ?
Result: 98 to 100 °C

Problem: Could you tell me which melting point is on file for C#Cc1cccc(N2C(=O)C=CC2=O)c1 ?
Result: 129 to 131 °C

Problem: Which melting point reading was recorded for the compound COCCc1nc2c(N)nc3ccccc3c2n1CCCNS(=O)(=O)c1ccccc1 ?
Result: 149 to 151 °C

Problem: I have this compound here, CC(=O)OC1CCC2(C)C(=CC(=O)C3C4CC(OC(C)=O)C(=O)C4(C)CCC32)C1 (configuration not stated) , and I need its recorded melting point.
Result: 206 °C

Problem: Give the measured melting point of Nc1ccc(F)c2c1C(=O)c1ccccc1-2 .
Result: 205 to 206 °C

Problem: I have this compound here, COc1ccc2c(n1)C1(CO2)C(=O)N(Cc2ccc(Cl)s2)c2ccccc21 (configuration not stated) , and I need its recorded melting point.
Result: 130 to 132 °C

Problem: GET /values?readout=melting point&item= C=C1c2ccccc2CC(=NO)Cc2ccccc21
Result: 119 to 123 °C

Problem: Report melting point for COc1cccc2c1-c1ccc(NS(C)(=O)=O)cc1C(c1cccc(N(C)C(C)=O)c1)O2 (configuration not stated) please.
Result: 165 to 168 °C

Problem: If you can, please state the reported melting point value of C=C(c1ccc(C(=O)O)s1)c1cc2cc(C(F)(F)F)ccc2n1S(=O)(=O)c1cccc(C(C)(C)C)c1 .
Result: 195 °C

Problem: Record request: melting point value, item COc1ccc(-c2cc3c(Br)c(OC)ccc3o2)cc1
Result: 115 to 117 °C

Problem: Item under review: Nc1nc(OS(=O)(=O)c2ccccc2)ncc1F . Reported melting point?
Result: 139 to 141 °C

Problem: # get_value(readout='melting point', item= CCOC(=O)c1c(C(F)(F)F)nc(C(F)(F)F)c(C)c1OCC(=O)c1ccccc1 )
Result: 95 to 97 °C

Problem: Name the recorded melting point for CCCNc1nc(N)c2ncn(C3CCCCC3)c2n1 .
Result: 155 to 156 °C

Problem: Record request: melting point value, item NC(=O)c1cccc(OCc2ccc(Br)cc2)c1
Result: 160 to 161 °C

Problem: Fill blank: measured melting point of the compound O=C(O)CNc1ccccc1F is ____.
Result: 126 to 127 °C

###

Entries and their melting point values follow.

Answered cases to consult:
COc1ccc2[nH]c(-c3cccc(F)c3)cc(=O)c2c1OP(=O)(O)O | 179 to 181 °C
COc1nc(C2CC2)nc(OC(C)C)c1C=O | 46 to 47 °C
O=[N+]([O-])c1ccc(F)c(CNCCO)c1 | 93 to 94 °C
CC(C)NC(=O)NCC(=O)O | 178 °C

Problem: Looking for the measured melting point of CN(CCCNc1ncc(CCc2ccccc2)c(=O)[nH]1)c1ccccn1 , can you help?
Result: 134 to 136 °C

Problem: Give the measured melting point of O=C1CN(S(=O)(=O)c2ccccc2)c2ccccc2N1 .
Result: 183 to 185 °C

###

Property: melting point (°C)

O=C(c1ccccc1)c1ccccc1Nc1ncccc1[N+](=O)[O-] | 85
COC(=O)C=Cc1cc(-c2nn(C)c(C(F)(F)F)c2Cl)c(F)cc1Cl | 117

###

The compounds listed here are annotated with their melting point.

Some solved cases for reference:
CC1(C)OC(=O)Nc2c(Br)cc(-c3ccc(F)c(Cl)c3)cc21 | 194 to 195 °C
O=[N+]([O-])N=C1NCCN1Cc1cc(Br)no1 | 149 °C
CCOC(=O)N1CCN(c2ccc(-n3cnn(C(CC)C(O)c4ccc(Cl)cc4)c3=O)cn2)CC1 (stereo not given) | 196 °C
COC(=O)c1ccccc1S(=O)(=O)NC(=O)Nc1cc(C)nc(C)n1 | 125 to 127 °C
Cc1cccc(CC(=O)O)c1OCCCc1cn(-c2ccc(C(F)(F)F)nn2)nc1C(C)(C)C | 96 to 97 °C
O=C(Nc1ccc(-c2nn(C(=O)c3ccccc3)c3c2Cc2ccccc2-3)cc1)c1ccccc1 | 241 °C

Problem: Entry CN1CCc2c(cccc2NC(=O)c2ccccc2Br)C1 : reported melting point = ?
Result: 206 to 208 °C

Problem: Which melting point is reported for this compound? O=C1c2ccccc2CN1C1CCN(CCC2c3ccccc3-c3ccccc32)CC1
Result: 65 to 68 °C

Problem: Please report the recorded melting point for COc1ccc(-c2nc3ccc(OC)cc3s2)cc1 .
Result: 162 to 164 °C

Problem: I have this compound here, Cc1csc(C(=O)CCc2ccccc2)c1OCCN(C)C , and I need its recorded melting point.
Result: 106 to 108 °C

Problem: Record request: melting point value, item O=C1c2cc(NCCO)ccc2OC12CC2
Result: 74 to 75 °C

Problem: Look at this compound and give its reported melting point. CCOC(=O)C(C)(C)Oc1ccc(OCCn2c(=O)sc3cc(C(=NOC)c4cccc(Cl)c4)ccc32)cc1
Result: 93 to 98 °C
